target: T1, CD47 on the surface of human red blood cells (human, UniProt Q08722 19-323); test: FACS, RBC, 200 nM
T1 construct: whole, on cells; Same protein as m3, on red blood cells; also called hRBC; RBC
Collected FACS (MFI) values appear next to each entry.
endpoint_label: FACS (MFI)

{"columns": ["binder", "endpoint_label", "test_value"],
 "data": [
  ["hz140-Hm13/hz182-Lm4 (antibody, V domains shown) VH: EVQLVQSGAEVKKPGASVKVSCKASGYKFTNYVMSWVRQAPGQRLEWMGYINPYNDAIKYNEKFTGRVTITRDTSASTAYMELSSLRSEDTAVYYCAREGDFYANYGRLGFAYWGQGTLVTVSS VL: DIQMTQSPSSLSASVGDRVTITCRASQDITNYLNWYQQKPGKAPKLLLYYTSRLHSGVPSRFSGSGSGTDYTLTISSLQPEDFATYFCQQGAGRPYTFGGGTKVEIKR", "FACS (MFI)", 1840],
  ["hz140-Hm13/hz182-Lm2 (antibody, V domains shown) VH: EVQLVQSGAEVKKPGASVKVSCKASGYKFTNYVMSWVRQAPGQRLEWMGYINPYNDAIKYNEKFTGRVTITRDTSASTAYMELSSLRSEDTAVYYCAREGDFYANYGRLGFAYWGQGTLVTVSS VL: DIQMTQSPSSLSASVGDRVTITCRASQDISNYLNWYQQKPGKAPKLLLYYTSRLHSGVPSRFSGSGSGTDYTFTISSLQPEDFATYFCQQGAGRPYTFGGGTKVEIKR", "FACS (MFI)", 1670],
  ["hz140-Hm13/hz182-Lm10 (antibody, V domains shown) VH: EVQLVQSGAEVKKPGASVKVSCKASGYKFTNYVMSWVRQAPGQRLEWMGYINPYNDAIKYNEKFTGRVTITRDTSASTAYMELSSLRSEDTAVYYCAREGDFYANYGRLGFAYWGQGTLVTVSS VL: DIQMTQSPSSLSASVGDRVTITCRASQDISNYLNWYQQKPGKAPKLLLYYTSRLHSGVPSRFSGSGSGTDYTLTISSLQPEDIATYFCQQGAGFPYTFGGGTKVEIKR", "FACS (MFI)", 326]
]}
